Test: Solubility of bendamustine in non-aqueous solvents
Format: physicochemical
Settings: PEG 300 (non-aqueous solvent), organic solvent or mixture, thermodynamic from solid; in PEG 300; sonication
Procedure: Bendamustine HCl was added in 5-10 mg increments to vials containing PG, PEG 200, PEG 300, PEG 400, and PEG 600, and the mixtures were sonicated. Sonication was stopped when the solution remained turbid after 8-10 minutes of sonication. Note: The solubility might be slightly overestimated because of the generation of heat during long sonication.
OBSERVED PROPERTY: solubility

- COMPOUND: "Cn1c(CCCC(=O)O)nc2cc(N(CCCl)CCCl)ccc21 [bendamustine]"
  ENDPOINT RESULT: "> 50 mg/mL"

====

test: Solubility of bendamustine in non-aqueous solvents in the presence of cyclodextrin; type: physicochemical; conditions: PEG 300 with 50 mg/mL HPβCD, organic solvent or mixture, thermodynamic from solid; in PEG 300 with 50 mg HPβCD per mL
OBSERVED PROPERTY: solubility (mg/mL)

- MOLECULE: "Cn1c(CCCC(=O)O)nc2cc(N(CCCl)CCCl)ccc21 [bendamustine]"
  OBSERVED PROPERTY: "solubility"
  ENDPOINT RESULT: 50

====

experiment: Solubility of bendamustine in non-aqueous solvents; assay type: physicochemical; settings: PG (non-aqueous solvent), organic solvent or mixture, thermodynamic from solid; in PG; sonication

- SMILES REPRESENTATION: "Cn1c(CCCC(=O)O)nc2cc(N(CCCl)CCCl)ccc21"
  solubility: "> 50 mg/mL"

====

experiment: Solubility of bendamustine in non-aqueous solvents; format: physicochemical; settings: PEG 600 (non-aqueous solvent), organic solvent or mixture, thermodynamic from solid; in PEG 600; sonication

- COMPOUND: "Cn1c(CCCC(=O)O)nc2cc(N(CCCl)CCCl)ccc21 [bendamustine]"
  solubility: "8000 to 10000 µg/mL"

====

assay: Solubility of bendamustine in non-aqueous solvents; type: physicochemical; conditions: PEG 200 (non-aqueous solvent), organic solvent or mixture, thermodynamic from solid; in PEG 200; sonication
OBSERVED PROPERTY: solubility

- SMILES REPRESENTATION: "Cn1c(CCCC(=O)O)nc2cc(N(CCCl)CCCl)ccc21"
  OBSERVED PROPERTY: "solubility"
  ENDPOINT RESULT: "> 50 mg/mL"
